Recorded values, source patent US8389505B2.

- System: MiaPaCa-2 (pancreatic carcinoma)
- assay-notes: MTT proliferation assay, MiaPaCa-2 cells
- Assay type: cell-based
- run-conditions: Homo sapiens, MIA PaCa-2, 72 hours incubation, read-out: IC50 (concentration that causes 50% growth inhibition), MiaPaCa-2
pIC50: −log10 of the molar value.
Entries and their pIC50
quantity-name: pIC50

compound	quantity-name	value-comparator	observed-measurement
O=C(CC12CC3CC(CC(C3)C1)C2)N1CCOCCOCCOCCOCCOCC1	pIC50	<	4.00
C1COCCOCCNCCOCCOCCN1 [Diaza-18-crown-6, diaza-18-crown-6, reference compound]	pIC50	<	4.00
C1COCCN(CCC23CC4CC(CC(C4)C2)C3)CCOCCOCCN(CCC23CC4CC(CC(C4)C2)C3)CCO1	pIC50	=	5.77
C(CN1CCOCCOCCOCCOCCOCC1)CC12CC3CC(CC(C3)C1)C2 [Compound 2, N-[3-(1-adamantyl)propyl]-aza-18-crown-6]	pIC50	=	4.96
O=C(CCC12CC3CC(CC(C3)C1)C2)N1CCOCCOCCOCCOCCOCC1	pIC50	=	4.52
C1COCCOCCN(CCC23CC4CC(CC(C4)C2)C3)CCOCCOCCO1 [Compound 1, N-[2-(1-adamantyl)ethyl]-aza-18-crown-6]	pIC50	=	4.92

====

- System: SW 620 (colon carcinoma)
- assay-notes: MTT proliferation assay, SW 620 cells
- Type: cell-based
- run-conditions: Homo sapiens, 72 hours incubation, read-out: IC50 (concentration that causes 50% growth inhibition), SW 620

compound	tgt	IC50
C1COCCOCCNCCOCCOCCN1 [Diaza-18-crown-6, diaza-18-crown-6, reference compound]	SW 620 (colon carcinoma)	> 100 µM
C(CN1CCOCCOCCN(CCCC23CC4CC(CC(C4)C2)C3)CCOCCOCC1)CC12CC3CC(CC(C3)C1)C2	SW 620 (colon carcinoma)	1 µM
O=C(CC12CC3CC(CC(C3)C1)C2)N1CCOCCOCCOCCOCCOCC1	SW 620 (colon carcinoma)	> 100 µM
